System: HIV-1 M:B
Experiment summary: Inhibition of HIV-1 M:B reverse transcriptase RNA-dependent DNA polymerase activity expressed in Escherichia coli M15 assessed as residual activity at 100 uM using poly(A)/oligo(dT)16 as template/primer measured after 30 mins by picogreen dye based assay relative to control
The reader will find reported Activity values listed item by item below.
Observable: Activity

INSERT INTO results (molecule, reported_measurement) VALUES
  ('Cc1ccc2c(c1)[C@](O)(CC(=O)c1ccccc1O)C(=O)N2', '88%'),
  ('O=C(CCn1c(=O)[nH]c2ccccc2c1=O)N[C@@H](Cc1c[nH]c2ccccc12)C(=O)O', '100%'),
  ('O=C(NCCc1c[nH]c2ccccc12)c1nc2ccccc2c(=O)[nH]1', '63%'),
  ('COc1ccc(-c2[nH]nc(C)c2Oc2ccc3c(c2)OCCCO3)c(O)c1', '72%'),
  ('C[C@@H](Cc1c[nH]c2ccccc12)NC(=O)CCn1c(=O)[nH]c2ccccc2c1=O', '73%'),
  ('CCn1c2ccccc2c2ccc(N)nc21', '77%'),
  ('O=C(CCc1c[nH]c2ccccc12)N1CCC[C@H]1c1nc2ccccc2[nH]1', '79%'),
  ('O=C(c1cc2ccccc2[nH]1)N1CCN(C(=O)c2cccc3[nH]ccc23)CC1', '62%'),
  ('Oc1ccc(-c2[nH]ncc2-c2ccccc2)c(O)c1', '65%'),
  ('COc1ccccc1-c1c[nH]nc1-c1ccc(O)cc1O', '61%'),
  ('Cc1[nH]c2ccccc2c1[C@@]1(O)C(=O)N(CC(N)=O)c2ccccc21', '85%'),
  ('COc1ccc(-c2nc3c(=O)n(C)c(=O)[nH]c3n2CCc2ccccc2)cc1', '96%');
